What IC50 was measured for each of the following?
target: T-cell receptor (TCR)-CD3 interaction, human (TCR alpha chain TRAV4); test: potency of TCR-CD3 interaction inhibitors, dose response, biochemical, fluorescence, TAMRA-labeled TCR probe (AID 686957); settings: TCR-CD3 binding
Activity calls are given as the source filed them. No rule for the calls is given here.

# input Test system T-cell receptor (TCR)-CD3 interaction, human (TCR alpha chain TRAV4); read-out IC50; what value for `COc1cc2ccccc2cc1C(=O)NNC(=O)c1ccccc1O` ?
# output > 94.2 µM (inactive)

# input Lookup: IC50 / T-cell receptor (TCR)-CD3 interaction, human (TCR alpha chain TRAV4) / `COc1ccc(C(=O)NNC(=S)NC(=O)c2cccnc2)cc1`
# output > 94.1 µM (inactive)

# input Query the reported IC50 for T-cell receptor (TCR)-CD3 interaction, human (TCR alpha chain TRAV4); item: `C/C(=N\NC(=O)c1c(C)nc2ccccn12)c1ccc(O)cc1O`
# output > 94.1 µM (inactive)

# input Find the measured IC50: item `C/C(=N/NC(=O)c1cc(O)c(O)c(O)c1)c1ccc([N+](=O)[O-])cc1` , target or system T-cell receptor (TCR)-CD3 interaction, human (TCR alpha chain TRAV4).
# output > 94.1 µM (inactive)

# input Entry `CCCCCCn1c(=O)c(C(=O)Nc2ncccc2O)c(O)c2ccccc21` , system T-cell receptor (TCR)-CD3 interaction, human (TCR alpha chain TRAV4): what IC50 was measured?
# output > 94.2 µM (inactive)

# input What measured IC50 is associated with O=C(NC(C(=O)N/N=C/c1cc([N+](=O)[O-])ccc1O)c1n[nH]c(=O)c2ccccc12)c1ccccc1 (stereo not given) on T-cell receptor (TCR)-CD3 interaction, human (TCR alpha chain TRAV4)?
# output > 94.1 µM (inactive)

# input Return IC50 measured with T-cell receptor (TCR)-CD3 interaction, human (TCR alpha chain TRAV4) given this compound: Oc1c(Br)cc(Br)cc1/C=N/NC(=S)N[C@H]1CC2C=CC1C2 (stereo not given in full)
# output > 94.1 µM (inactive)

# input Any idea what IC50 came out for `O=C(O)c1ccccc1/C=N/NC(=O)c1cc(-c2ccco2)nc2ccccc12` on T-cell receptor (TCR)-CD3 interaction, human (TCR alpha chain TRAV4)?
# output > 94.1 µM (inactive)

# input Hello, I am looking for reported IC50 with T-cell receptor (TCR)-CD3 interaction, human (TCR alpha chain TRAV4) for `Cc1nc2ccccc2c(=O)n1/N=C/c1cc(Br)cc(Br)c1O` . Could you help?
# output > 94.1 µM (inactive)

# input Short answer please: IC50, T-cell receptor (TCR)-CD3 interaction, human (TCR alpha chain TRAV4), entry CC1=NN(C(=O)c2ccccc2)C(O)(c2ccc(Br)cc2)C1 (stereo not given)
# output > 94.2 µM (inactive)
